Hey, just so you know, these numbers are from patent US11414387B2.

biological target: hSTING-WT (Homo sapiens (Human), UniProt Q86WV6, H232R); experiment: Radiometric filtration binding competition assay, hSTING-WT
Sequence (Q86WV6 140-379 H232R): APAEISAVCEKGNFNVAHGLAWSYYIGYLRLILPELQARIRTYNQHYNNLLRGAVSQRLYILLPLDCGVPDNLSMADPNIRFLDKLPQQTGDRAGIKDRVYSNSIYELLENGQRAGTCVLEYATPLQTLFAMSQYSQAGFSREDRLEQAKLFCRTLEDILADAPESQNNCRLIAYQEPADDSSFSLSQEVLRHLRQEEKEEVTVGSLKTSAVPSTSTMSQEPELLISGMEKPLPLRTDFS
pIC50: −log10 of the molar value.
measured.quantity: pIC50

Sample answers from the record:
Query: State, for hSTING-WT (Homo sapiens (Human), UniProt Q86WV6, H232R), measured pIC50 of the molecule listed here: COc1c(Cl)ccc2c(=O)c3ccc(-c4ccoc4)cc3n(CC(=O)O)c12 [Compound 277]
Result: > 4.70

Query: State, for hSTING-WT (Homo sapiens (Human), UniProt Q86WV6, H232R), measured pIC50 of the molecule listed here: COc1c(Cl)ccc2c(=O)c3cc(Br)c(C(C)C)cc3n(CC(=O)O)c12 [Compound 268]
Result: 4.00 to 4.70

Query: State, for hSTING-WT (Homo sapiens (Human), UniProt Q86WV6, H232R), measured pIC50 of the molecule listed here: O=C(O)Cn1c2ccc(-c3ccccc3)cc2c(=O)c2ccc(Cl)c(Cl)c21 [Compound 125]
Result: 4.00 to 4.70

Query: State, for hSTING-WT (Homo sapiens (Human), UniProt Q86WV6, H232R), measured pIC50 of the molecule listed here: O=C(O)Cn1c2cc(NC3CCCCCC3)ccc2c(=O)c2ccc(Cl)c(Cl)c21 [Compound 122]
Result: 4.00 to 4.70

Query: State, for hSTING-WT (Homo sapiens (Human), UniProt Q86WV6, H232R), measured pIC50 of the molecule listed here: O=C(O)Cn1c2ccccc2c(=O)c2ccc(Cl)c(OCCO)c21 [Compound 328]
Result: < 3.52

Query: State, for hSTING-WT (Homo sapiens (Human), UniProt Q86WV6, H232R), measured pIC50 of the molecule listed here: O=C(O)Cn1c2cc(N3CCCC3)ccc2c(=O)c2ccc(Cl)c(Br)c21 [Compound 201]
Result: 3.52 to 4.00

Next:
Query: State, for hSTING-WT (Homo sapiens (Human), UniProt Q86WV6, H232R), measured pIC50 of the molecule listed here: CC(C)c1ccc2c(=O)c3ccc(C#N)c(Cl)c3n(CC(=O)O)c2c1 [Compound 145]
Result: 3.52 to 4.00

Query: State, for hSTING-WT (Homo sapiens (Human), UniProt Q86WV6, H232R), measured pIC50 of the molecule listed here: C[C@H](Oc1c(Cl)ccc2c(=O)c3ccccc3n(CC(=O)O)c12)c1ccccc1 [Compound 295]
Result: 3.52 to 4.00

====

molecular target: hSTING-WT (Homo sapiens (Human), UniProt Q86WV6, H232R); assay: Radiometric filtration binding competition assay, hSTING-WT
# maps each entry to its IC50

Sample answers from the record:
Query: State, for hSTING-WT (Homo sapiens (Human), UniProt Q86WV6, H232R), measured IC50 of the molecule listed here: O=C(O)Cn1c2cc(Nc3cnccn3)ccc2c(=O)c2ccc(Cl)c(Cl)c21
Result: 20 to 100 µM

Query: State, for hSTING-WT (Homo sapiens (Human), UniProt Q86WV6, H232R), measured IC50 of the molecule listed here: CC(C)Sc1c(Cl)ccc2c(=O)c3ccc(C(C)(C)C)cc3n(CC(=O)O)c12
Result: < 20 µM

Query: State, for hSTING-WT (Homo sapiens (Human), UniProt Q86WV6, H232R), measured IC50 of the molecule listed here: Cc1ccc2c(=O)c3ccc(Cl)cc3n(C(C)C(=O)O)c2c1 (centres unmarked)
Result: > 300 µM

Next:
Query: State, for hSTING-WT (Homo sapiens (Human), UniProt Q86WV6, H232R), measured IC50 of the molecule listed here: COc1c(Cl)ccc2c(=O)c3ccc(-c4ccc(O)cc4)cc3n(CC(=O)O)c12
Result: < 20 µM

Query: State, for hSTING-WT (Homo sapiens (Human), UniProt Q86WV6, H232R), measured IC50 of the molecule listed here: COc1c(Cl)ccc2c(=O)c3ccc(C)cc3n(CC(=O)NC#N)c12
Result: 100 to 300 µM

Query: State, for hSTING-WT (Homo sapiens (Human), UniProt Q86WV6, H232R), measured IC50 of the molecule listed here: COc1c(Cl)ccc2c(=O)c3ccc(C4CCCCC4)cc3n(CC(=O)O)c12
Result: < 20 µM

Query: State, for hSTING-WT (Homo sapiens (Human), UniProt Q86WV6, H232R), measured IC50 of the molecule listed here: COc1c(Cl)ccc2c(=O)c3ccc(C(C)(C)C)cc3n(CC(=O)O)c12
Result: < 20 µM

Query: State, for hSTING-WT (Homo sapiens (Human), UniProt Q86WV6, H232R), measured IC50 of the molecule listed here: COc1c(Cl)ccc2c(=O)c3ccc(C4=CCCCC4)cc3n(CC(=O)O)c12
Result: < 20 µM

====

biological target: STING protein (Homo sapiens (Human), UniProt Q86WV6, H232R); assay: Cell based reporter assay of IRF activation (IRF-luciferase), THP1-dual-KI R232; settings: read-out: THP1-dual-KI R232_IRF(Luciferase)_Activity Maximum measured (%)
Sequence (Q86WV6 whole entry H232R): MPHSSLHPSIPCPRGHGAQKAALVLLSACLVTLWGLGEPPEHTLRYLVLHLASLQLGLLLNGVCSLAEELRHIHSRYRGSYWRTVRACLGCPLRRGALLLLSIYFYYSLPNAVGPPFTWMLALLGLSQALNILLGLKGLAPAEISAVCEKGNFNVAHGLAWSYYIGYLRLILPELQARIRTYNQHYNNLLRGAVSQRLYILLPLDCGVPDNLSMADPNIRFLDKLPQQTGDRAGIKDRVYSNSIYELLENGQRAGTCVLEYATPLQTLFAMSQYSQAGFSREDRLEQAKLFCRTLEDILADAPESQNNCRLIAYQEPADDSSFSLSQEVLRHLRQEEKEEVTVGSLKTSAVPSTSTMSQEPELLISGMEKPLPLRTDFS
measured.quantity: Emax

Sample answers from the record:
Query: Give me measured Emax, please, for this molecule: O=C(O)Cn1c2cc(Nc3cnc(Cl)cn3)ccc2c(=O)c2ccc(Cl)c(Cl)c21 [Compound 258]
Result: < 5%

Query: Give me measured Emax, please, for this molecule: CC(C)c1ccc2c(=O)c3ccc(Cl)c(Br)c3n(CC(=O)NS(C)(=O)=O)c2c1 [Compound 350]
Result: < 5%

Query: Give me measured Emax, please, for this molecule: O=C(O)Cn1c2cc(NC3CCC3)ccc2c(=O)c2ccc(Cl)c(Br)c21 [Compound 175]
Result: > 50%

Query: Give me measured Emax, please, for this molecule: COc1c(Cl)ccc2c(=O)c3ccc(C4CCCOC4)cc3n(CC(=O)O)c12 (centres unmarked) [Compound 253]
Result: > 50%

Query: Give me measured Emax, please, for this molecule: CC1(C)CCC=C(c2ccc3c(=O)c4ccc(Cl)c(Cl)c4n(CC(=O)O)c3c2)C1 [Compound 157]
Result: < 5%

Next:
Query: Give me measured Emax, please, for this molecule: Cc1cccc2c(=O)c3cccc(C)c3n(CC(=O)O)c12 [Compound 132]
Result: < 5%

Query: Give me measured Emax, please, for this molecule: COc1c(Cl)ccc2c(=O)c3ccc(Nc4ccc(F)cc4)cc3n(CC(=O)O)c12 [Compound 250]
Result: > 50%

Query: Give me measured Emax, please, for this molecule: COc1c(Cl)ccc2c(=O)c3ccc(NC(C)C)cc3n(CC(=O)O)c12 [Compound 300]
Result: > 50%

====

biological target: hSTING-R232 (Homo sapiens (Human), UniProt Q86WV6, H232R); assay: STING differential scanning fluorimetry (DSF) assay, WT human STING; conditions: WT (R232) human STING aa140-379, net shift in melting temperature
Sequence (Q86WV6 140-379 H232R): as the sequence (Q86WV6 140-379 H232R) above
measured.quantity: WT_DSF_hSWAT Tm Shift (° C.)

Query: Give me measured WT_DSF_hSWAT Tm Shift (° C.), please, for this molecule: CCCCCCOc1c(Cl)ccc2c(=O)c3ccccc3n(CC(=O)O)c12
Result: C (“C” = 2-7° C,)

Query: Give me measured WT_DSF_hSWAT Tm Shift (° C.), please, for this molecule: C#Cc1c(Cl)ccc2c(=O)c3ccccc3n(CC(=O)O)c12
Result: C (“C” = 2-7° C,)

====

target: hSTING-WT (Homo sapiens (Human), UniProt Q86WV6, H232R); assay: Radiometric filtration binding competition assay, hSTING-WT
pIC50: −log10 of the molar value.
measured.quantity: pIC50

Sample answers from the record:
Query: Give me measured pIC50, please, for this compound: O=C(O)CCCn1c2ccccc2c(=O)c2ccc(Cl)c(Cl)c21
Result: < 3.52

Query: Give me measured pIC50, please, for this compound: Cc1ccc2c(=O)c3ccc(Cl)cc3n([C@@H](C)C(=O)O)c2c1
Result: 4.00 to 4.70

Query: Give me measured pIC50, please, for this compound: O=C(O)Cn1c2ccccc2c(=O)c2cccc(Br)c21
Result: < 3.52

Query: Give me measured pIC50, please, for this compound: CNc1ccc2c(=O)c3ccc(Cl)c(OC)c3n(CC(=O)O)c2c1
Result: 4.00 to 4.70

Query: Give me measured pIC50, please, for this compound: C#CCOc1c(Cl)ccc2c(=O)c3ccccc3n(CC(=O)O)c12
Result: 3.52 to 4.00

Query: Give me measured pIC50, please, for this compound: COc1c(Cl)ccc2c(=O)c3ccc(C)cc3n(CC(=O)NS(=O)(=O)C3CC3)c12
Result: 3.52 to 4.00

Query: Give me measured pIC50, please, for this compound: COc1c(Cl)ccc2c(=O)c3ccc(C4CCCNC4)cc3n(CC(=O)O)c12 (centres unmarked)
Result: < 3.52

Query: Give me measured pIC50, please, for this compound: COc1c(Cl)ccc2c(=O)c3ccccc3n(CC(=O)O)c12
Result: < 3.52

Query: Give me measured pIC50, please, for this compound: CCOc1c(Cl)ccc2c(=O)c3ccc(C)cc3n(CC(=O)OC)c12
Result: < 3.52

Query: Give me measured pIC50, please, for this compound: O=C(O)Cn1c2cc(Nc3ccc(F)cc3)ccc2c(=O)c2ccc(Cl)c(Cl)c21
Result: > 4.70

Moving on to the next compound.
Query: Give me measured pIC50, please, for this compound: COc1c(Cl)ccc2c(=O)c3cc(N(C)C)c(C(C)C)cc3n(CC(=O)O)c12
Result: < 3.52
